Data provenance: patent US20230183179A1

Recorded inhibition at 1085 µM (stock) for the following molecules
# Assayed System: His6 tagged human recombinant FABP4 (Homo sapiens)
# Construct: purchased Cayman Chemicals 10009549
# Sequence (P15090 whole entry): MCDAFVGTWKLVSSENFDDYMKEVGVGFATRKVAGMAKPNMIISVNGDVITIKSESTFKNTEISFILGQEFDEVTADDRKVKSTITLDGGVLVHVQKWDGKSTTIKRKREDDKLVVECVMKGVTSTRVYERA
# Assay Notes: FABP4 TR-FRET assay: displacement of fluorescent fatty acid BODIPY FL C12
# Test Context: inhibition of BODIPY FL C12 binding to His6-FABP4; 1.2 μL of 1.085 mM compound in DMSO per well; triplicates, mean percent inhibition
Unit % implied. Number only.

Examples with answers:
* CCCCCCc1ccc2nc(N3CCCC(C(=O)O)C3)cc(-c3ccccc3)c2c1 (stereo not shown) | 88.3
* CCCCc1ccc2nc(N(C)CC(=O)O)cc(-c3ccccc3O)c2c1 | 93.2

stdin: Which inhibition at 1085 µM (stock) is listed for CN(CC(=O)O)c1cc(-c2ccccc2)c2cc(OCc3ccccc3)ccc2n1 ?
stdout: 84.2

stdin: Which inhibition at 1085 µM (stock) is listed for O=C(O)COc1cc(-c2ccccc2)c2cc(Cl)ccc2n1 ?
stdout: 34.4

stdin: Fill in the blank: the reported inhibition at 1085 µM (stock) of CCc1ccc2nc(N(C)CC(=O)O)cc(-c3ccccc3)c2c1 is ____.
stdout: 103
